Provenance of the data: patent US10336790B2

# System: M. tuberculosis MC26020
Ends that are not written are not given here.
Form field: MIC (one value per entry).
Measure Name: MIC

                                  substance  meas_value
0  IRKLKSWKWLRWL-NH2 [Peptide B4, IRKLKSWKWLRWL]    32 µg/mL
1  ILSLRWRWKWWKK-NH2 [Peptide B1, ILSLRWRWKWWKK]    32 µg/mL
2  ILSLRWRWWKWKK-NH2 [Peptide B3, ILSLRWRWWKWKK]     8 µg/mL
3  ILSLRWWRKWWKK-NH2 [Peptide B2, ILSLRWWRKWWKK]    32 µg/mL
